The origin of these recorded values is patent US8471005B2.

Entries annotated with measured IC50
Measured Target: JAK2 (Homo sapiens)
Construct: host or cells: baculovirus expression system
Procedure Text: Recombinant Human JAK2 Kinase Assay (TRF)
Assay type: biochemical
Recorded Conditions: JAK2 kinase inhibition, 0.2 μM ATP; read-out: JAK2 Potency

The following molecules have reported results that may help.
{"Molecule": "Cc1cc(Nc2ncc3ccc(-c4ccccc4N(C)S(C)(=O)=O)n3n2)cc2oc(=O)[nH]c12", "Assay Value": "< 0.1 µM"}
{"Molecule": "CC(C)(C)NS(=O)(=O)c1cccc(-c2ccc3cnc(Nc4ccc5c(cnn5CCN5CCOCC5)c4)nn23)c1", "Assay Value": "< 0.1 µM"}
{"Molecule": "COc1ccc(-c2ccc3cnc(Nc4ccc(C5CC6CCC(C5)N6C)cc4)nn23)cn1 (stereo not shown)", "Assay Value": "< 0.1 µM"}
{"Molecule": "CN1CCN(C(=O)N2CCC(c3ccc(Nc4ncc5ccc(-c6ccccc6N(C)S(C)(=O)=O)n5n4)cc3)CC2)CC1", "Assay Value": "< 0.1 µM"}

## Task # return recorded IC50 for entry COc1ccc(-c2ccc3cnc(Nc4cncc(C(N)=O)c4)nn23)cn1
## Result < 0.1 µM

## Task # return recorded IC50 for entry CNC(=O)CN1CCC(c2ccc(Nc3ncc4ccc(-c5ccccc5N(C)S(C)(=O)=O)n4n3)c(OC)c2)CC1
## Result 0.1 to 1 µM

## Task # return recorded IC50 for entry COc1ccc(C2CCN(C)CC2)cc1Nc1ncc2ccc(-c3ccccc3N(C)S(C)(=O)=O)n2n1
## Result 0.1 to 1 µM

---

Entries annotated with measured IC50
Measured Target: JAK2 (Homo sapiens, UniProt O60674)
Construct: host or cells: baculovirus expression system
Sequence (O60674 whole entry): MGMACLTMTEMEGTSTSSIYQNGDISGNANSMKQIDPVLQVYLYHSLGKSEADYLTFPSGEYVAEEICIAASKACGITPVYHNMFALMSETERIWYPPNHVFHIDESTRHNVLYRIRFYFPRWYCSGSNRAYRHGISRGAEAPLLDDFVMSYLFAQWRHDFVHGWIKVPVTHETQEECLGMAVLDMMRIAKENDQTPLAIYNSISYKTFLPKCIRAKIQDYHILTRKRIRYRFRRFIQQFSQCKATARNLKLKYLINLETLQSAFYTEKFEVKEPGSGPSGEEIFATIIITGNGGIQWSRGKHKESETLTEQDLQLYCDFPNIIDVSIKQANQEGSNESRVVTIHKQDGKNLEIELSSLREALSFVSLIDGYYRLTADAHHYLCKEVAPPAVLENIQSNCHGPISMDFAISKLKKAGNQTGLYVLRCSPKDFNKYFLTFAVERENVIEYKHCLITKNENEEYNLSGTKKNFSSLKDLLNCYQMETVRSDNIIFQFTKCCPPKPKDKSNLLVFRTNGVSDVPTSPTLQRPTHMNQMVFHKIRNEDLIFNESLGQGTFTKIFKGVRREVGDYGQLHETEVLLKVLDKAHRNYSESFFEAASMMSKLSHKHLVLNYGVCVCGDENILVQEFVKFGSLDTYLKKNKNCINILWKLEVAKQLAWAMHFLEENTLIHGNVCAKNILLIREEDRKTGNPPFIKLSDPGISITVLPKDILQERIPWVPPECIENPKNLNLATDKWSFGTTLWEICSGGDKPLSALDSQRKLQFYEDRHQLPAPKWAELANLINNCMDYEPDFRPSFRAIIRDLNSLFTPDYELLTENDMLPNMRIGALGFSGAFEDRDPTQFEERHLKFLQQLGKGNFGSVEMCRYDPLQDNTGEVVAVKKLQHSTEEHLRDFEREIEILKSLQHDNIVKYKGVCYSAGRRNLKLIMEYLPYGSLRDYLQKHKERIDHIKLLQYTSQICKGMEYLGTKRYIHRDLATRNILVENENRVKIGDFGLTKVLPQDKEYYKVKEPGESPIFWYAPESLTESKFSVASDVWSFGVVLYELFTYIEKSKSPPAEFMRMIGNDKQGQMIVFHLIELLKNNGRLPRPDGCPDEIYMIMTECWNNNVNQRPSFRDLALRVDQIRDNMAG
Procedure Text: Recombinant Human JAK2 Kinase Assay (TRF)
Assay type: biochemical
Recorded Conditions: JAK2 Kinase Inhibition; read-out: JAK2 Potency

The following compounds have reported results that may help.
{"Compound Structure": "COc1cc(N2CCC(CN3CCN(C)CC3)CC2)ccc1Nc1ncc2ccc(-c3ccccc3N(C)S(C)(=O)=O)n2n1", "Measured Target": "JAK2 (Homo sapiens, UniProt O60674)", "IC50": "100 to 1000 nM"}
{"Compound Structure": "COc1ccccc1-c1ccc2cnc(Nc3ccc(N4CCOCC4)cc3F)nn12", "Measured Target": "JAK2 (Homo sapiens, UniProt O60674)", "IC50": "< 100 nM"}
{"Compound Structure": "COc1ccccc1-c1ccc2cnc(Nc3ccc(N4CCCC4)cc3)nn12", "Measured Target": "JAK2 (Homo sapiens, UniProt O60674)", "IC50": "< 100 nM"}

## Task # return recorded IC50 for entry c1cncc(-c2ccc3cnc(-n4cnc5cnccc54)nn23)c1
## Result 1000 to 10000 nM

---

Measured Target: ALK (Homo sapiens, UniProt Q9UM73)
Construct: host or cells: baculovirus expression system
Sequence (Q9UM73 19-1620): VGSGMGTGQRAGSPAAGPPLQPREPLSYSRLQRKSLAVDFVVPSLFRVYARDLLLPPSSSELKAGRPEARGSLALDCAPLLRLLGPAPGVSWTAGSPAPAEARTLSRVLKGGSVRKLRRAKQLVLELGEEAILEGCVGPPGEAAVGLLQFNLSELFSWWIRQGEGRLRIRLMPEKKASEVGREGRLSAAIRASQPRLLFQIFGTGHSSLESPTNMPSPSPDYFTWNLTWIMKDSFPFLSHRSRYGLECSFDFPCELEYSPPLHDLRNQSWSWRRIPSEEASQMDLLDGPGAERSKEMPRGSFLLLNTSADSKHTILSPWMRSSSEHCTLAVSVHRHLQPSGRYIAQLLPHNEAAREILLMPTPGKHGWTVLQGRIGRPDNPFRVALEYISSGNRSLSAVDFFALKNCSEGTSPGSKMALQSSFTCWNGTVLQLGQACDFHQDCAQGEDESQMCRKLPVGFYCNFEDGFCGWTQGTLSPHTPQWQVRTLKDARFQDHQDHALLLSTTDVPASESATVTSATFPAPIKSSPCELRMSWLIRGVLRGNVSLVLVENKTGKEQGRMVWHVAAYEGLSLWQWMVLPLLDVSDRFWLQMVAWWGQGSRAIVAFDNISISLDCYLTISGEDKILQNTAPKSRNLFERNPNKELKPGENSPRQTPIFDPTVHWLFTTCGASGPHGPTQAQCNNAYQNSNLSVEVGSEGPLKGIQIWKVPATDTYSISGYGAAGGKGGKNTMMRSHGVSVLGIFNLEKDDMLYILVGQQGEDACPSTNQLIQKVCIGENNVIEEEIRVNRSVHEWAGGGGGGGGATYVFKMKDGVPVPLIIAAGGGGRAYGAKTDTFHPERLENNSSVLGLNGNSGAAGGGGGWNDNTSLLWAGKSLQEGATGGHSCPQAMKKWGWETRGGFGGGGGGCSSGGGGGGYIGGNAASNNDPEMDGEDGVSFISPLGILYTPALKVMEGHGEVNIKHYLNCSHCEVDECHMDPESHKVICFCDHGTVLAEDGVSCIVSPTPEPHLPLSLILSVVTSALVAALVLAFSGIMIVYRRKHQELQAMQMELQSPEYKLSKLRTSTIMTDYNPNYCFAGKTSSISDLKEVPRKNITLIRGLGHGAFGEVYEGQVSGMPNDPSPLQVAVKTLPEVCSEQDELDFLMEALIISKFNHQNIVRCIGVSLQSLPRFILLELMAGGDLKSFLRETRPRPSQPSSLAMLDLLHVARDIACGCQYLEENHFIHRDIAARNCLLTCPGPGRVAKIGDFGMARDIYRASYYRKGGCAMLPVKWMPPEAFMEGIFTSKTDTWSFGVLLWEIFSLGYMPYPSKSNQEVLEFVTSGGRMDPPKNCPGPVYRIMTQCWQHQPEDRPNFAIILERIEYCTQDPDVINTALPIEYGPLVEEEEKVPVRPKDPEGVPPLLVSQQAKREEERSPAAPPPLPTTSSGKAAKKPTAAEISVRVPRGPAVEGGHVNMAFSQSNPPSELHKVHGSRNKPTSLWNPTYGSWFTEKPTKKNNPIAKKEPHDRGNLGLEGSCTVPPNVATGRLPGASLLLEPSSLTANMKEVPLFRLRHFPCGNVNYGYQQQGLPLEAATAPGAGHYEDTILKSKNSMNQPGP
Procedure Text: ALK Kinase Assay (ELISA/TRF, PLC-γ substrate)
Assay type: biochemical
Recorded Conditions: ALK kinase inhibition, 1 μM ATP; read-out: ALK Potency
Endpoint: IC50

{"Compound": "CCNS(=O)(=O)c1cccc(-c2ccc3cnc(Nc4ccc(C5CCN(C)CC5)cc4)nn23)c1", "IC50": "< 100 nM"}
{"Compound": "CN1CCC(c2ccc(Nc3ncc4ccc(-c5cccc(S(=O)(=O)N6CCCC6)c5)n4n3)cc2)CC1", "IC50": "100 to 1000 nM"}
{"Compound": "CS(=O)(=O)c1cccc(-c2ccc3cnc(Nc4ccc(Cl)c(OC[C@@H]5CCCN5)c4)nn23)c1", "IC50": "1000 to 10000 nM"}
{"Compound": "CN1CCN(c2ccc(Nc3ncc4ccc(-c5ccccc5OCC(=O)O)n4n3)cc2)CC1", "IC50": "100 to 1000 nM"}
{"Compound": "COCCn1cc(-c2ccc3cnc(Nc4cccc(N5CCN(C)CC5)c4)nn23)cn1", "IC50": "1000 to 10000 nM"}

## Task # return recorded IC50 for entry COc1cc(C2CCN(C(=O)OC(C)(C)C)CC2)ccc1Nc1ncc2ccc(-c3ccccc3OC)n2n1
## Result > 10000 nM

## Task # return recorded IC50 for entry CCN(CC)C1CCN(c2ccc(Nc3ncc4ccc(-c5ccc(OC)nc5)n4n3)cc2)CC1
## Result 100 to 1000 nM

## Task # return recorded IC50 for entry COc1cc(N2CCC(N(C)CCO)CC2)ccc1Nc1ncc2ccc(-c3ccccc3OC)n2n1
## Result < 100 nM

## Task # return recorded IC50 for entry Cc1nc(-c2ccc3cnc(Nc4ccc(N5CCOCC5)cc4)nn23)cn1C
## Result 1000 to 10000 nM

## Task # return recorded IC50 for entry COc1ccccc1-c1ccc2cnc(Nc3ccc4c(c3)CCC(N3CCOCC3)CC4)nn12 (stereo not shown)
## Result < 100 nM

## Task # return recorded IC50 for entry CCN1CCN(C(=O)c2ccc(Nc3ncc4c(-c5ccccc5OC)ccn4n3)cc2)CC1
## Result > 10000 nM

---

Entries annotated with measured IC50
Measured Target: ALK (Homo sapiens, UniProt Q9UM73)
Construct: host or cells: baculovirus expression system
Procedure Text: ALK Kinase Assay (ELISA/TRF, PLC-γ substrate)
Type: biochemical
Recorded Conditions: ALK Kinase Inhibition; read-out: ALK Potency

{"Molecule": "COc1ccccc1-c1ccc2cnc(Nc3ccc4c(c3)OCO4)nn12", "Assay Value": "0.1 to 1 µM"}
{"Molecule": "COc1cc(N2CCN(C)CC2)ccc1Nc1ncc2cc3ccccc3n2n1", "Assay Value": "0.1 to 1 µM"}
{"Molecule": "CC(C)(C)NS(=O)(=O)c1cccc(-c2ccc3cnc(Nc4cccc(-n5cccn5)c4)nn23)c1", "Assay Value": "1 to 10 µM"}
{"Molecule": "COc1ccccc1-c1ccc2cnc(-c3nnc(C)[nH]3)nn12", "Assay Value": "> 10 µM"}
{"Molecule": "CN1CCN(c2ccc(Nc3ncc4ccc(-c5cccc(CO)c5)n4n3)cc2)CC1", "Assay Value": "< 0.1 µM"}
{"Molecule": "CN1CCN(C(=O)c2ccc(Nc3ncc4ccc(-c5cccnc5)n4n3)cc2)CC1", "Assay Value": "0.1 to 1 µM"}
{"Molecule": "CN1CCN(C(=O)c2ccc(Nc3ncc4ccc(-c5ccccc5N(C)S(C)(=O)=O)n4n3)cc2)CC1", "Assay Value": "0.1 to 1 µM"}
{"Molecule": "Cc1cc(-c2ccc(S(C)(=O)=O)cc2)n2nc(Nc3ccc(N4CCN(C)CC4)cc3)ncc12", "Assay Value": "0.1 to 1 µM"}

## Task # return recorded IC50 for entry CC(C)(C)NS(=O)(=O)c1cccc(-c2ccc3cnc(Nc4ccc(N5CCOCC5)c(F)c4)nn23)c1
## Result 0.1 to 1 µM

## Task # return recorded IC50 for entry c1cncc(-c2ccc3cnc(-n4cnc5cnccc54)nn23)c1
## Result 1 to 10 µM

## Task # return recorded IC50 for entry C[C@H](O)CN1CCN(c2cc([S@@+](C)[O-])c(Nc3ncc4ccc(-c5ccccc5N(C)S(C)(=O)=O)n4n3)cc2F)CC1 [Example 1484]
## Result < 0.1 µM

## Task # return recorded IC50 for entry COc1cc(N2CCC(F)(F)CC2)ccc1Nc1ncc2ccc(-c3ccccc3N(C)S(C)(=O)=O)n2n1
## Result < 0.1 µM

## Task # return recorded IC50 for entry CN1CCC(c2ccc(Nc3ncc4ccc(-c5ccccc5OCC(N)=O)n4n3)cc2)CC1
## Result 0.1 to 1 µM

## Task # return recorded IC50 for entry COc1ccc(Cl)cc1-c1ccc2cnc(Nc3cccc(C(N)=O)c3)nn12
## Result 1 to 10 µM

## Task # return recorded IC50 for entry COc1ccc(Cl)cc1-c1ccc2cnc(Nc3ccc(C(=O)N4CCOCC4)cc3)nn12
## Result 0.1 to 1 µM

## Task # return recorded IC50 for entry COc1cc(N2CCN(C)CC2)ccc1Nc1ncc2ccc(-c3ccccc3S(=O)(=O)N(C)C)n2n1
## Result 0.1 to 1 µM

## Task # return recorded IC50 for entry COc1ccc(Cl)cc1-c1ccc2cnc(Nc3cccc(N4CCN(C[C@@H](C)O)CC4)c3)nn12
## Result < 0.1 µM

## Task # return recorded IC50 for entry CNC(=O)c1ccc(-c2ccc3cnc(Nc4ccc(N5CCC(N6CCN(C)CC6)CC5)cc4OC)nn23)cc1
## Result < 0.1 µM

## Task # return recorded IC50 for entry Fc1cc(N2CCOCC2)ccc1Nc1ncc2ccc(-c3cccnc3)n2n1
## Result 0.1 to 1 µM

## Task # return recorded IC50 for entry CN1CCN(CC2CCCN(c3ccc(Nc4ncc5ccc(-c6ccc(S(C)(=O)=O)cc6)n5n4)cc3)C2)CC1 (stereo not shown)
## Result 0.1 to 1 µM

## Task # return recorded IC50 for entry COc1cc(N2CCCC(N3CCN(C)CC3)C2)ccc1Nc1ncc2ccc(-c3ccccc3OC)n2n1 (single isomer, unassigned) [Example 1441]
## Result < 0.1 µM

## Task # return recorded IC50 for entry CCN(CC)C(=O)c1ccccc1-c1ccc2cnc(Nc3ccc(N4CCOCC4)cc3)nn12
## Result 0.1 to 1 µM

## Task # return recorded IC50 for entry O=S(=O)(Nc1cccc(-c2ccc3cnc(Nc4ccc(N5CCOCC5)cc4)nn23)c1)C1CC1
## Result 0.1 to 1 µM

## Task # return recorded IC50 for entry O=C(NCCCN1CCOCC1)c1ccc(-c2ccc3cnc(Nc4ccc(N5CCOCC5)cc4)nn23)cc1
## Result 1 to 10 µM

## Task # return recorded IC50 for entry CC(=O)Nc1cc(Nc2ncc3ccc(-c4cccc(Cl)c4)n3n2)ccc1C(C)(C)C
## Result > 10 µM

## Task # return recorded IC50 for entry CN1CCN(C2CCCN(c3ccc(Nc4ncc5ccc(-c6ccc(S(C)(=O)=O)cc6)n5n4)cc3)C2)CC1 (stereo not shown)
## Result 0.1 to 1 µM
